# credit: ChEMBL document CHEMBL1145868

targetDesc: Prothrombin (Homo sapiens, UniProt P00734)
testName: Inhibition of thrombin in human plasma
pKi: −log10 of the molar value.
quantityKind: pKi

Check out these entries, answers already filled in.
givenSmiles	quantityKind	valueMeasured
Cc1cc(C(F)(F)F)c(N)c(=O)n1CC(=O)NCc1cc(Cl)ccc1OCC(=O)NCCN(C)C	pKi	7.74
CCNC(=O)COc1ccc(Cl)cc1CNC(=O)Cn1c(C)cnc(NCCc2ccccc2)c1=O	pKi	10.15
CCNC(=O)COc1ccc(Cl)cc1CNC(=O)Cn1c(C)cnc(N)c1=O	pKi	7.92
CCNC(=O)COc1ccc(Cl)cc1CNC(=O)Cn1c(C)cc(C(F)(F)F)c(N)c1=O	pKi	8.07

A = Cc1ccc(NS(=O)(=O)Cc2ccccc2)c(=O)n1CC(=O)NCc1cccc(Cl)c1
B = Cc1ccc(NS(=O)(=O)Cc2ccccc2)c(=O)n1CC(=O)NCc1cc(Cl)ccc1Cl
*Q* Lab log: flag the item ( A or B ) with the smaller pKi figure. Mark your selection by writing its label.
*A* B

----------
targetDesc: Trypsin (Homo sapiens, UniProt P07477+P07478+P35030)
testName: Inhibition of trypsin in human plasma
Assay type: cell-free
quantityKind: Ki (µM)

// solved cases for Ki follow
givenSmiles	Ki [µM]
Cc1nc(N)ccc1CNC(=O)Cn1c(C)cnc(N)c1=O	23
CCNC(=O)COc1ccc(Cl)cc1CNC(=O)Cn1c(C)ccc(NS(=O)(=O)Cc2ccccc2)c1=O	2

P = N[C@@H](C(=O)N1CCC[C@H]1C(=O)NCc1cc(Cl)ccc1Cl)C1CCCCC1
Q = Cc1nc(N)ccc1CNC(=O)Cn1c(C)cc(C(F)(F)F)c(N)c1=O
R = Cc1cc(C(F)(F)F)c(N)c(=O)n1CC(=O)NCc1cc(Cl)ccc1OCC(=O)NCCN(C)C
*Q* Arrange these 3 compounds in increasing order of Ki. Please write the labels in the order that was asked for.
*A* R, Q, P

----------
Organism: Homo sapiens
testName: Protein binding affinity in human plasma, expressed as percent unbound (free)
Assay type: functional
quantityKind: Unbound (%)

// solved cases for Unbound follow
compound	resultUnit	Unbound
Cc1nc(N)ccc1CNC(=O)Cn1c(C)cnc(NCCc2ccccc2)c1=O [L-375378]	%	6
CCNC(=O)COc1ccc(Cl)cc1CNC(=O)[C@@H]1CCCN1C(=O)[C@H](N)C1CCCCC1	%	15
CCNC(=O)COc1ccc(Cl)cc1CNC(=O)Cn1c(C)cnc(NCCc2ccccc2)c1=O	%	1
Cc1cc(C(F)(F)F)c(N)c(=O)n1CC(=O)NCc1cc(Cl)ccc1OCC(=O)NCCCN(C)C	%	18

I = CCNC(=O)COc1ccc(Cl)cc1CNC(=O)Cn1c(C)cnc(N)c1=O
II = N[C@@H](C(=O)N1CCC[C@H]1C(=O)NCc1cc(Cl)ccc1Cl)C1CCCCC1
*Q* When I and II are compared, which has the higher number for Unbound? I would appreciate it if you answered with the label of your choice.
*A* I
(I: 20%, II: 4%)

----------
targetDesc: Trypsin (Homo sapiens, UniProt P07477+P07478+P35030)
testName: Inhibition of trypsin in human plasma
Assay type: cell-free
quantityKind: Ki (µM)

P = CCNC(=O)COc1ccc(Cl)cc1CNC(=O)Cn1c(C)cc(C(F)(F)F)c(N)c1=O
Q = Cc1ccc(NS(=O)(=O)Cc2ccccc2)c(=O)n1CC(=O)NCc1cc(Cl)ccc1Cl
*Q* Just curious, which one has the larger Ki reading, P or Q ? Could you answer with the label of the item you picked?
*A* Q

I = CCNC(=O)COc1ccc(Cl)cc1CNC(=O)Cn1c(C)cnc(N)c1=O
II = Cc1nc(N)ccc1CNC(=O)Cn1c(C)cnc(NCCc2ccccc2)c1=O
*Q* Recorded Ki values differ for I and II ; which one is higher? Reply with the label of the item you choose.
*A* I

1 = CCNC(=O)COc1ccc(Cl)cc1CNC(=O)Cn1c(C)cnc(NCCc2ccccc2)c1=O
2 = CNC(=O)COc1ccc(Cl)cc1CNC(=O)Cn1c(C)cc(C(F)(F)F)c(N)c1=O
*Q* Smaller Ki value? Options are 1 and 2 Mark your answer with the label of the selected entry.
*A* 1
(1: 1 µM, 2: 7.1 µM)

----------
targetDesc: UniProtKB P00734
testName: Inhibition of thrombin in human plasma
Type: cell-free
pKi: −log10 of the molar value.
quantityKind: pKi

Known pKi results, listed for orientation:
givenSmiles	valueMeasured
CCNC(=O)COc1ccc(Cl)cc1CNC(=O)Cn1c(C)ccc(NS(=O)(=O)Cc2ccccc2)c1=O	10.40
Cc1cc(C(F)(F)F)c(N)c(=O)n1CC(=O)NCc1cc(Cl)ccc1OCC(=O)NCCCN(C)C	8.13

1 = Cc1nc(N)ccc1CNC(=O)Cn1c(C)cnc(N)c1=O
2 = Cc1nc(N)ccc1CNC(=O)Cn1c(C)cc(C(F)(F)F)c(N)c1=O
3 = CNC(=O)COc1ccc(Cl)cc1CNC(=O)Cn1c(C)cc(C(F)(F)F)c(N)c1=O
*Q* Rank by pKi (largest to smallest). Your task in answering is to list the labels in the requested order.
*A* 3, 2, 1

----------
targetDesc: Trypsin (Homo sapiens, UniProt P07477+P07478+P35030)
testName: Inhibition of trypsin in human plasma
Type: cell-free
quantityKind: Ki (µM)

givenSmiles	resultUnit	Ki
Cc1ccc(NS(=O)(=O)Cc2ccccc2)c(=O)n1CC(=O)NCc1cccc(Cl)c1	µM	20
CCNC(=O)COc1ccc(Cl)cc1CNC(=O)[C@@H]1CCCN1C(=O)[C@H](N)C1CCCCC1	µM	23
Cc1cc(C(F)(F)F)c(N)c(=O)n1CC(=O)NCc1cc(Cl)ccc1OCC(=O)NCCCN(C)C	µM	11
